Note to self: these molecules have Ki reported for UniProtKB P08173 in various publications.
EXPERIMENTAL_SYSTEM: UniProtKB P08173
Sequence (P08173 whole entry): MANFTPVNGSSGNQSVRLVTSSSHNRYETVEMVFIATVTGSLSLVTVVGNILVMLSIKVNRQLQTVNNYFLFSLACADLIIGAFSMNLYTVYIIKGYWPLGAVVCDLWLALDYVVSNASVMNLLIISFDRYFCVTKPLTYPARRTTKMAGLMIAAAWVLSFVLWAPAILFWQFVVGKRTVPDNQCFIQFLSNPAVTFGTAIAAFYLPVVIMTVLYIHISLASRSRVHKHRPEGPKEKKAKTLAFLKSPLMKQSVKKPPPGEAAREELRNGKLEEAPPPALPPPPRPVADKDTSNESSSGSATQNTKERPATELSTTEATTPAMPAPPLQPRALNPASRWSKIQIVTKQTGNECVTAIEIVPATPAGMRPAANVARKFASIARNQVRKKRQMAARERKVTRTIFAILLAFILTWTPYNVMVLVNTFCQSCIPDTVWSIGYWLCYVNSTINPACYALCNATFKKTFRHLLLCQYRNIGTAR
Give the value in nM but do not write nM after it.

Qu. What value of Ki has been reported for the following molecule? CCN(CC)CCCCOC(=O)C(C)(c1ccccc1)C1CCCCC1 (configuration not stated)
Ans. 209

Qu. Given C[N+](C)(CCCC(O)(c1ccccc1)c1ccccc1)CCC[N+](C)(C)CCCC(O)(c1ccccc1)c1ccccc1 , state its recorded Ki.
Ans. 11200

Qu. Query: Ki; subject: CN1CCN(CC(=O)N2c3ccccc3C(=O)Nc3cccnc32)[C@@H]2CCCC[C@@H]21 (relative stereo)
Ans. 2450

Qu. Given the entry C[N+]1(C)CCC(C2CC[N+](C)(CCCC(O)(c3ccccc3)c3ccccc3)CC2)CC1 (configuration not stated) , report its measured Ki.
Ans. 2690

Qu. Entry CC1(C)C(/C=C/C=C/C=C2/N(CCCCCC(=O)NCCNC(=O)CCc3cn(CCCCC4CCN(CC(=O)N5c6ccccc6NC(=O)c6ccccc65)CC4)cn3)c3ccc(S(=O)(=O)O)cc3C2(C)C)=[N+](CCCCS(=O)(=O)[O-])c2ccccc21.O=C(O)C(F)(F)F has what Ki?
Ans. 4.47

Qu. Given the entry CN(CCc1cccc(F)c1)[C@H]1C2C3CC4C2C(=O)C2C4C3C21 (some centres not stated) , report its measured Ki.
Ans. 2800

Qu. // returns reported Ki for input CN1/C(=C/C=C/C=C/C2=[N+](CCCCCC(=O)NCCCCCCN3CCC(OC(=O)Nc4ccc(F)cc4-c4ccc(F)c(Cl)c4)CC3)c3ccccc3C2(C)C)C(C)(C)c2ccccc21
Ans. 5.4

Qu. # query: Ki of entry CC(=O)OCCCCCCCCCCCCOc1nsnc1C1=CCCN(C)C1
Ans. 79.4

Qu. For the molecule CN(CCCN(C)CCCC(O)(c1ccccc1)c1ccccc1)CCCC(O)(c1ccccc1)c1ccccc1 , what Ki is on record?
Ans. 617

Qu. What Ki value was documented for this molecule, CC(C1=C(CCN(C(C)C)C(C)C)Cc2ccccc21)c1ccccn1 (stereo in doubt; 19) ?
Ans. 741

Qu. Given the molecule O=C(CCN1CCCc2ccccc21)Nc1cccnn1 , what is its reported Ki?
Ans. 14100

Qu. Which Ki is listed for CN(C)CCOC(=O)C1=C(Cc2ccccn2)c2ccccc2C1 ?
Ans. 14800

Qu. Entry CN(C)c1ccc2c(-c3ccc(-c4cn(CCCCCn5cc(CCCCCN6CCC(OC(=O)Nc7ccc(F)cc7-c7ccc(F)c(Cl)c7)CC6)nn5)nn4)cc3C(=O)[O-])c3ccc(=[N+](C)C)cc-3oc2c1 has what Ki?
Ans. 3.3

Qu. # input molecule: O=C1CCc2ccccc2N1CCCN1CCC(CCCCCCCCCCCCCO)CC1 ; wanted: its Ki
Ans. 95.5

Qu. Look at this molecule and give its reported Ki. O=C(CCCCCNC(=O)CC(c1ccccc1)(c1ccccc1)c1ccccc1)NC[C@H]1CCCN(CC2CCCCC2)C1
Ans. 30

Qu. // query Ki value for entry CC(C1=C(CCN(C)C)Cc2ccccc21)c1ccccc1 (configuration not stated)
Ans. 372
